measurement-target: TRIM25 CC-PRY/SPRY penta-mutant (UniProt Q14258 189-630, K283A;K285A;H505E;K508E;K602E)
Sequence (Q14258 189-630 K283A/K285A/H505E/K508E/K602E): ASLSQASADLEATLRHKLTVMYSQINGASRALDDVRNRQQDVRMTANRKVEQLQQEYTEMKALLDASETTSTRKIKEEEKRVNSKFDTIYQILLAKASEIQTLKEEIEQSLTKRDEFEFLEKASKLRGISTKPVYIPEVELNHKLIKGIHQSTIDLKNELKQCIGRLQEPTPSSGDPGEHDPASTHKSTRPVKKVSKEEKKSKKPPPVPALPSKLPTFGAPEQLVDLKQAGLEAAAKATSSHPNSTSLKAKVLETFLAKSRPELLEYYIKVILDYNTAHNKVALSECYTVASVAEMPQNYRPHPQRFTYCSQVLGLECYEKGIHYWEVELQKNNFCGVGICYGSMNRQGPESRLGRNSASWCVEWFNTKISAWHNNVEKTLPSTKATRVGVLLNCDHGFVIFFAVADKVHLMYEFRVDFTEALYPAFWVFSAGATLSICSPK
assay-text: ITC; second fitted site; ITC and filter binding: 20 mM MES pH 6.5, 75 mM NaCl, 0.5 mM TCEP (ITC 20 C, filter binding on ice); NMR: 20 mM Na phosphate pH 6.5, 150 mM NaCl, 2 mM TCEP, 293 K
condition-summary: protein: recombinant; tags: His-Trx (removed); chain copies: 2; hairpin
measured-endpoint: Kd (µM)
Give the value, in units of µM, as a plain number.

binder GUAUAGUUUAAAAGGAGAUAACUAUAC (structured_RNA) [pre-let-7a-1@2] , Kd observed: 124
